- TEST SUMMARY: Cytotoxicity against dog MDCK cells assessed as reduction in cell viability by MTT assay
- Type: cell-based, Canis lupus familiaris
Binary label based on CC50 with cut-off 30 µM: below gives fulfilled, not below gives not fulfilled.

INSERT INTO measurements (query_smiles, class_assignment) VALUES
  ('O=C(CCN1CCCCC1)Nc1cc(C(F)(F)F)cc2sc(=O)sc12', 'not fulfilled'),
  ('O=C(CN1CCCC1)Nc1cc(C(F)(F)F)cc2sc(=O)sc12', 'not fulfilled'),
  ('O=C(CN1CCCCC1)Nc1cc(C(F)(F)F)cc2sc(=O)sc12', 'not fulfilled'),
  ('O=C(CCN1CCOCC1)Nc1cc(C(F)(F)F)cc2sc(=O)sc12', 'not fulfilled'),
  ('Nc1cc(C(F)(F)F)cc2sc(=O)sc12', 'not fulfilled'),
  ('NC(=O)c1ncn([C@@H]2O[C@H](CO)[C@@H](O)[C@H]2O)n1', 'not fulfilled'),
  ('O=C(CCN1CCCC1)Nc1cc(C(F)(F)F)cc2sc(=O)sc12', 'not fulfilled'),
  ('CC(=O)Nc1cc(C(F)(F)F)cc2sc(=O)sc12', 'not fulfilled'),
  ('O=C(CN1CCOCC1)Nc1cc(C(F)(F)F)cc2sc(=O)sc12', 'fulfilled'),
  ('O=C(Nc1cc(C(F)(F)F)cc2sc(=O)sc12)C(F)(F)F', 'fulfilled');
